In this section we review reported IC50 values for a set of molecules.
Target: UniProt:Q13574
Sequence (Q13574 other isoform, or with tags, fused parts or gaps): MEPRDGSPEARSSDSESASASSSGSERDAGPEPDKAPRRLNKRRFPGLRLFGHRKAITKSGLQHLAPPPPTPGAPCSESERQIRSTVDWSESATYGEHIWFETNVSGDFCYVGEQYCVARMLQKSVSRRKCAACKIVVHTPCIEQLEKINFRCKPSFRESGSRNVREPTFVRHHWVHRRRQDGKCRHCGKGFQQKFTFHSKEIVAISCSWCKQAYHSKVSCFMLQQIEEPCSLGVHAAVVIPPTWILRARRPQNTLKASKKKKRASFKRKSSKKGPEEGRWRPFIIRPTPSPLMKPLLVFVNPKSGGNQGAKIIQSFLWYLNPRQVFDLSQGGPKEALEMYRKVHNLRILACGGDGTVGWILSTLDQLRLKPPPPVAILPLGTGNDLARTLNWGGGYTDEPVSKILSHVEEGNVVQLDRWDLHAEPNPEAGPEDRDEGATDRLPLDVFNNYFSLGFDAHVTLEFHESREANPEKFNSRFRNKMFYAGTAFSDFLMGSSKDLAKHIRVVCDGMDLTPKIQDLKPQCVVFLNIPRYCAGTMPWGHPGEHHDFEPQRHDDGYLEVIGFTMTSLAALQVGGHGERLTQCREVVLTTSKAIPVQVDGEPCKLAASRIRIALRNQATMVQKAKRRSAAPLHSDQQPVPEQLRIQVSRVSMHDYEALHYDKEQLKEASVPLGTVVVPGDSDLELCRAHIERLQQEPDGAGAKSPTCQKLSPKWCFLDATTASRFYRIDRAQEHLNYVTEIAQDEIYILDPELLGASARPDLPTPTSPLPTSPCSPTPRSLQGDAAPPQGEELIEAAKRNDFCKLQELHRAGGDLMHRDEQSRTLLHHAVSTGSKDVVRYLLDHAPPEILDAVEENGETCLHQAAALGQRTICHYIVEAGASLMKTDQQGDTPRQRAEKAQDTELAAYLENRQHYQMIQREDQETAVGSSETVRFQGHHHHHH
Assay: DGKζ assay (detergent/lipid micelle substrate)
Type: biochemical
Settings: detergent/lipid micelle substrate; read-out: DGKζ IC50
Entry rule: numbers only, all in µM.

{"molecule": "Cc1ccc(CN2CCN(c3c(C#N)c(=O)n(C)c4ccc(Br)nc34)CC2)c(O)c1 [Example 372]", "unitTag": "µM", "IC50": 60}
{"molecule": "COc1cc(F)ccc1C(c1ccc(F)cc1)N1CCN(c2c([N+](=O)[O-])c(=O)n(C)c3ccc(Br)nc23)CC1 (single isomer, unassigned) [Example 58]", "unitTag": "µM", "IC50": 19}

Let's switch to this molecule now.
Item: Cn1c(=O)c(C#N)c(N2CCN(CC(O)c3ccc(F)cc3)CC2)c2nc(Br)ccc21 (single isomer, unassigned) [Example 30] | IC50: 140
